Listed here: items and their measured MIC.
Test system: enterococci
Assay: Minimum inhibitory concentration, microdilution broth method, enterococci
Type: cell-based
Details: Enterococcus faecalis, E. faecalis GC 4555; Mueller-Hinton broth, 18-22 hours at 35° C.; read-out: MIC E. faecalis GC 4555
Express your answer in µg/mL, writing the number without its unit.

- Test smiles: "CCCc1ccc(-c2ccc(C3=C(O)/C(=C/c4cccc(C(F)(F)F)c4)OC3=O)cc2)cc1"
  Target of assay: "enterococci"
  Measured quantity: "MIC"
  Numeric value: 8
- Test smiles: "COc1ccc(C2=C(O)/C(=C/c3ccc(-c4ccccc4)cc3)OC2=O)cc1"
  Target of assay: "enterococci"
  Measured quantity: "MIC"
  Numeric value: 64
- Test smiles: "O=C1O/C(=C\\C2CCCCC2)C(O)=C1c1ccc(Cl)cc1"
  Target of assay: "enterococci"
  Measured quantity: "MIC"
  Numeric value: 64
- Test smiles: "O=C1O/C(=C\\c2cccc3ccccc23)C(O)=C1c1ccc(-c2ccccc2)cc1"
  Target of assay: "enterococci"
  Measured quantity: "MIC"
  Numeric value: 16
- Test smiles: "O=C1O/C(=C\\c2ccc(-c3ccccc3)cc2)C(O)=C1c1ccc(Cl)cc1Cl"
  Target of assay: "enterococci"
  Measured quantity: "MIC"
  Numeric value: 16

Give recorded MIC. O=C1O/C(=C\c2ccc(-c3ccccc3)cc2)C(O)=C1c1ccc(Cl)cc1
8

----------
Listed here: items and their measured pIC50.
Target: E. coli Uridine-diphosphate-N-acetvimuramoyl: L-alanine lipase, MurC (Escherichia coli, UniProt P17952)
Sequence (P17952 whole entry): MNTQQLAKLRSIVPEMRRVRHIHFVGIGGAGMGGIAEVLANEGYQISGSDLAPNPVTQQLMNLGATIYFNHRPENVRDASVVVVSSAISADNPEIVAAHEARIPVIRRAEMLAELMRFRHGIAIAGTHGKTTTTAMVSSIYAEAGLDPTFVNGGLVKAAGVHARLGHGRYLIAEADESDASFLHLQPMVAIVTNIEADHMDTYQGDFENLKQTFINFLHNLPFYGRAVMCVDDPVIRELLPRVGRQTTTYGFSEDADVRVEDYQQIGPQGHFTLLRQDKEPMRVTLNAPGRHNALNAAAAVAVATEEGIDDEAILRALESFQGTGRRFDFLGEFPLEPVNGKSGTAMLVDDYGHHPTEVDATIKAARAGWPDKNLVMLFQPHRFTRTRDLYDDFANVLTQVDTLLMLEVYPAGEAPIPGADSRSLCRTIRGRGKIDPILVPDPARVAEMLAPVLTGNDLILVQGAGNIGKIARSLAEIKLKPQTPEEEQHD
Assay: Inhibitory activity against MurC (E. coli)
Type: biochemical
Details: MurC IC50, (E) E. coli enzyme
As a rule, pIC50 stands for the negative log10 of the concentration, concentration in M.

- Compound: "O=C1O/C(=C\\c2cccc3ccccc23)C(O)=C1c1ccc(-c2ccccc2)cc1 [R=H, R1=4-biphenyl, R2=1-naphthyl]"
  Numeric value: 4.81

Give recorded pIC50. O=C1O/C(=C\c2ccc(-c3ccc(Cl)cc3)cc2)C(O)=C1c1ccc(Cl)cc1 [R=H, R1=4-Cl—C6H4, R2=4-(4′-Cl-biphenyl)]
4.53

Give recorded pIC50. O=C1O/C(=C\c2ccc(C(F)(F)F)cc2)C(O)=C1c1ccc(-c2ccccc2)cc1 [R=H, R1=4-(biphenyl), R2=4-CF3—C6H4]
4.91

Give recorded pIC50. O=C1O/C(=C\c2ccccc2C(F)(F)F)C(O)=C1c1ccc(-c2ccccc2)cc1 [Example 99]
5.01

----------
Target: UniProtKB P84058
Sequence (P84058 whole entry): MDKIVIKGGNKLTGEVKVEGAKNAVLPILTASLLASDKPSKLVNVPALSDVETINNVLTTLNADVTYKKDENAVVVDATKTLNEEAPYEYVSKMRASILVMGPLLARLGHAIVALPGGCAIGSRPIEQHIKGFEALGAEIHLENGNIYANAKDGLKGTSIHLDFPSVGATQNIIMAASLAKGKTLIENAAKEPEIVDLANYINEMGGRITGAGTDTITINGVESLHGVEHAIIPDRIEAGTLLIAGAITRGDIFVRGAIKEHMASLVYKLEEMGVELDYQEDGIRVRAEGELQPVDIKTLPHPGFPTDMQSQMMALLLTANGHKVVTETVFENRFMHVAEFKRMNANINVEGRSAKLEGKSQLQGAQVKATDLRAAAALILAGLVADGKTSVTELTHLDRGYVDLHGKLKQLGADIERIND
Experiment: Inhibitory activity against MurA (S. aureus)
Assay type: biochemical
Conditions: (S) S. aureus enzyme
Measured quantity: MurA IC50

Sample answers from the record:
- Compound: "Cc1cc(/C=C2\\OC(=O)C(c3cc(Cl)cc(Cl)c3)=C2O)ccc1-c1ccccc1OS(C)(=O)=O [Example 39]"
  Result: "15 (S) μg/mL"
- Compound: "O=C1O/C(=C\\c2cc(C(F)(F)F)ccc2Cl)C(O)=C1c1ccc(N2CCOCC2)c(F)c1 [Example 142]"
  Result: ">25 (S) μg/mL"
- Compound: "CCOC(=O)c1cccc(C2=C(O)C(=Cc3cccc4ccccc34)OC2=O)c1 [Example 75]"
  Result: ">25 (S) μg/mL"
- Compound: "O=C1OC(=Cc2cccc3ccccc23)C(O)=C1c1ccc(C=NO)cc1 (mixture of isomers) [Example 73]"
  Result: ">25 (S) μg/mL"
- Compound: "O=C1O/C(=C\\c2ccc(N3CCOCC3)c(F)c2)C(O)=C1c1cc(Cl)cc(Cl)c1 [Example 34]"
  Result: "22 (S) μg/mL"
- Compound: "COc1ccc(C=C2OC(=O)C(c3cccc(Cl)c3)=C2O)c2ccccc12 [Example 35]"
  Result: ">25 (S) μg/mL"
- Compound: "O=C1O/C(=C\\c2cccc3ccccc23)C(O)=C1c1cccc(C=NO)c1 [Example 77]"
  Result: ">25 (S) μg/mL"
- Compound: "CN(C)c1ccc(C=C2OC(=O)C(c3cc(Cl)cc(Cl)c3)=C2O)c2ccccc12 [Example 80]"
  Result: "15 (S) μg/mL"

// next entry
Give recorded MurA IC50. Cc1cc(C=C2OC(=O)C(c3cc(Cl)cc(Cl)c3)=C2O)ccc1-c1ccccc1Cl [Example 31]
2 (S) μg/mL

----------
Listed here: items and their measured MIC.
System: enterococci
Experiment: Minimum inhibitory concentration, microdilution broth method, enterococci
Format: cell-based
Details: Enterococcus faecalis, E. faecalis GC 2242; Mueller-Hinton broth, 18-22 hours at 35° C.; read-out: MIC E. faecalis GC 2242
Express your answer in µg/mL, writing the number without its unit.

Sample answers from the record:
- Test smiles: "CCOc1ccc(-c2ccc(C3=C(O)/C(=C/c4cccc(C(F)(F)F)c4Cl)OC3=O)cc2)cc1"
  Target of assay: "enterococci"
  Measured quantity: "MIC"
  Numeric value: 8
- Test smiles: "O=C1O/C(=C\\c2ccc3ccccc3c2)C(O)=C1c1ccc(-c2ccccc2)cc1"
  Target of assay: "enterococci"
  Measured quantity: "MIC"
  Numeric value: 32

// next entry
Report value only: MIC, enterococci, O=C1O/C(=C\c2ccc(-c3ccccc3)cc2)C(O)=C1c1cccc(C(F)(F)F)c1
1

----------
Listed here: items and their measured % Mortality 48 h.
System: larvae of blowfly, Lucilia sericata
Experiment: whole plant or invertebrate
Settings: dose rate of 20 ppm; Lucilia sericata larvae on treated filter paper with bovine serum; assessed at 48 h
Express your answer in %, writing the number without its unit.

Sample answers from the record:
- Compound: "N#Cc1cccc(C2=C(O)C(=Cc3ccc(F)cc3)OC2=O)c1 (mixture of isomers)"
  Unit text: "%"
  % Mortality 48 h: 0
- Compound: "O=C1OC(=Cc2ccc(C(F)(F)F)cc2)C(O)=C1c1cccc(Cl)c1 (mixture of isomers)"
  Unit text: "%"
  % Mortality 48 h: 75
- Compound: "COc1ccc(C=C2OC(=O)C(c3ccc(Cl)cc3)=C2O)cc1"
  Unit text: "%"
  % Mortality 48 h: 0
- Compound: "O=C1OC(=Cc2ccc(-c3ccc(Cl)cc3)cc2)C(O)=C1c1ccc(C(F)(F)F)cc1 (mixture of isomers)"
  Unit text: "%"
  % Mortality 48 h: 65
- Compound: "O=C1OC(=Cc2ccc(F)cc2)C(O)=C1c1cccc(C(F)(F)F)c1 (mixture of isomers)"
  Unit text: "%"
  % Mortality 48 h: 100
- Compound: "O=C1OC(=Cc2ccc(-c3ccccc3CO)cc2)C(O)=C1c1ccccc1CO"
  Unit text: "%"
  % Mortality 48 h: 0

Give recorded % Mortality 48 h. O=C1OC(=Cc2ccc(Cl)cc2)C(O)=C1c1ccc(-c2ccc(Cl)cc2)cc1 (mixture of isomers)
0

----------
Tested on: enterococci
Assay: Minimum inhibitory concentration, microdilution broth method, enterococci
Assay type: cell-based
Conditions: Enterococcus faecalis, E. faecalis GC 2242; Mueller-Hinton broth, 18-22 hours at 35° C.; read-out: MIC E. faecalis GC 2242
Measured quantity: MIC (µg/mL)
Express your answer in µg/mL, writing the number without its unit.

- Molecule: "O=C1O/C(=C\\c2ccc(Cl)cc2)C(O)=C1c1ccc2ccccc2c1 [Example 43]"
  Unit text: "µg/mL"
  Numeric value: 4
- Molecule: "CN(C)c1ccc(/C=C2\\OC(=O)C(c3cc(Cl)cc(Cl)c3)=C2O)c2ccccc12 [Example 79]"
  Unit text: "µg/mL"
  Numeric value: 4
- Molecule: "O=C1O/C(=C\\c2ccccc2C(F)(F)F)C(O)=C1c1ccc(-c2ccccc2)c(F)c1 [Example 107]"
  Unit text: "µg/mL"
  Numeric value: 2

// next entry
Give recorded MIC. O=C1O/C(=C\c2ccccc2C(F)(F)F)C(O)=C1c1ccc(-c2ccccc2)cc1 [Example 99]
4

----------
System: Trichostrongylus columbriformis
Experiment: In vivo efficacy against T. colubriformis in infected gerbils
Settings: gerbils infected with T. colubriformis; single oral dose of 50 mg/kg by gavage; worm counts four days post-treatment; % mortality as compared to negative control
Measured quantity: Mortality (%)
Express your answer in %, writing the number without its unit.

Sample answers from the record:
- Compound: "O=C1OC(=Cc2cc(Cl)cc(Cl)c2)C(O)=C1c1ccc(OC(F)(F)F)cc1 (mixture of isomers) [R=H; R1=4-OCF3—C6H4**; R2=3,5-diCl—C6H3]"
  Target of assay: "Trichostrongylus columbriformis"
  Mortality (%): 33.40
- Compound: "N#Cc1ccc(C2=C(O)C(=Cc3ccc(-c4ccc(Cl)cc4)cc3)OC2=O)cc1 [R=H; R1=4-CN—C6H4; R2=4-(4′-Cl-biphenyl)]"
  Target of assay: "Trichostrongylus columbriformis"
  Mortality (%): 64.33
- Compound: "O=C1OC(=Cc2cnccc2-c2ccc(F)cc2)C(O)=C1c1ccc(OC(F)(F)F)cc1 (mixture of isomers)"
  Target of assay: "Trichostrongylus columbriformis"
  Mortality (%): 12.80

Give recorded Mortality. O=C1OC(=Cc2cnccc2Br)C(O)=C1c1ccc(OC(F)(F)F)cc1 (mixture of isomers)
12.80

Give recorded Mortality. N#Cc1ccc(C2=C(O)C(=Cc3ccc4c(c3)OC(F)(F)O4)OC2=O)cc1 (mixture of isomers)
88.10
